Parameter normalized RNA/DNA level with ligand (log10): see the listing below.
B1: library; a variant is named by its letters at N, in order (parent)
chain: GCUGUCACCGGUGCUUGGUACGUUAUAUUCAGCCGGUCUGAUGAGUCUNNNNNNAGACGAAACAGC

# Variants of: B1
# Assay comment: normalized RNA/DNA level with ligand (relative to sTRSVctl = 100) (log10 (% of sTRSVctl)); HEK293T overexpressing SLC46A1; ligand concentration (+) RNA-Seq: 6 mM; higher = less ribozyme self-cleavage, higher mRNA level
# Run conditions: with (6R,S)-folinic acid; ligand present: yes
Assay endpoint: normalized RNA/DNA level with ligand (log10)

- Mutation label: "AUAGCA"
  Assay value: 2.03
- Mutation label: "AUCAUC"
  Assay value: 1.98
- Mutation label: "UACUAU"
  Assay value: 2.03
- Mutation label: "CUAAAU"
  Assay value: 1.99
- Mutation label: "CGUAAG"
  Assay value: 2.03
- Mutation label: "AAUUAU"
  Assay value: 2.03
- Mutation label: "CCUGCA"
  Assay value: 2.06
- Mutation label: "UUGCCG"
  Assay value: 2.03
- Mutation label: "ACGACC"
  Assay value: 2.08
- Mutation label: "AUAUAG"
  Assay value: 2
- Mutation label: "AGGGCA"
  Assay value: 2.03
